Test system: HCC1806
experiment-summary: Anticancer activity against human HCC1806 cells assessed as inhibition of cell proliferation
Format: functional, cell-based

molecule	test-system	IC50, µM
CN1CCN(c2ccc(C3=NN(S(=O)(=O)c4ccc(Br)cc4)C(c4ccc(N(C)C)cc4)C3)cc2)CC1 (stereo not given)	HCC1806	8.65
CN1CCN(c2ccc(C3=NN(C(=O)/C=C/c4ccccc4)C(c4ccc(N(C)C)cc4)C3)cc2)CC1 (stereo not given)	HCC1806	9.05
CN1CCN(c2ccc(C3=NN(S(=O)(=O)c4ccc(C#N)cc4)C(c4ccc(N(C)C)cc4)C3)cc2)CC1 (stereo not given)	HCC1806	2.99
CN1CCN(c2ccc(C3=NN(S(=O)(=O)c4ccc(F)cc4)C(c4ccc(N(C)C)cc4)C3)cc2)CC1 (stereo not given)	HCC1806	6.1
CN1CCN(c2ccc(C3=NN(C(=O)c4ccc(C(F)(F)F)cc4)C(c4ccc(N(C)C)cc4)C3)cc2)CC1 (stereo not given)	HCC1806	5.4
